Measured target: SSTR4 (Homo sapiens, UniProt P31391);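 also: CHO-K1 cells overexpressing SSTR4, reduction of forskolin-driven cAMP after 30 min compound exposure at room temperature, cAMP read by HTRF LANCE Ultra kit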
Sequence (P31391 whole entry): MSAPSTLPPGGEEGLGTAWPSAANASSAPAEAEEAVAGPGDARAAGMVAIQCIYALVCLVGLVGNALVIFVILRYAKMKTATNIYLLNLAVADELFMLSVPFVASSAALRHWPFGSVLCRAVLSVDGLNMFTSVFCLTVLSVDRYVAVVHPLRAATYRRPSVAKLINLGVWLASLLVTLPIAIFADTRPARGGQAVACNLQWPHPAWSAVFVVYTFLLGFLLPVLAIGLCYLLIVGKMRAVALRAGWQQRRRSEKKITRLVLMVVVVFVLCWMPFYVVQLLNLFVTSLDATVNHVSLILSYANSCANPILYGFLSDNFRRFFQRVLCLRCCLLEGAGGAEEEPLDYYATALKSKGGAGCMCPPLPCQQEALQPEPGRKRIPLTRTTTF
Assay notes: cell-based
Please use the following EC50 ranges when assigning a class: zone 1 (below 5 nM), zone 2 (5 nM to below 40 nM), zone 3 (40 nM or more)

Worked cases, answers included:
CC(c1ccc(F)cc1)c1nc(-c2ncco2)cnc1NCCN1CCCC1 (centres unmarked); zone 2
Cc1cccc(Cc2nc(C)c(C)nc2N[C@@H]2CCN(C)C2)c1; zone 3
CO[C@@H]1CCN(C(=O)c2nc(C(C)c3ccc(F)cc3)c(NCCN3CCCC3)nc2C)C1 (some centres unmarked); zone 1
Cc1nc(NCCN2CCCC2)c(C(C)c2ccc(F)cc2)nc1C(=O)N1CC[C@@H](F)C1 (some centres unmarked); zone 1
Cc1cccc(Cc2nc(C(N)=O)c(C)nc2NCCN2CCCC2)c1; zone 1
Cc1nnc([C@@H](C)c2ccccc2)c(NCCN2CCC2)n1 (single isomer, unassigned); zone 1
Cc1nc(NCCN2CCCC2)c(C(C)c2ccc(F)cc2)nc1C(=O)N[C@H]1C[C@H](F)C1 (some centres unmarked); zone 2
Cc1nnc(C(C)c2ccc(F)cc2)c(NCCN2CCC2)n1 (centres unmarked); zone 1
C[C@@H](c1ccc(F)cc1)c1nccnc1NCCN1CCCC1 (single isomer, unassigned); zone 3
Cc1nc(Cc2ccc(F)cc2)c(N[C@@H]2CCN(C)C2)nc1C; zone 3

Exercise: Determine which band this molecule sits in: `Cc1nc(NCCN2CCC2)c(Cc2ccc(F)cc2)nc1C#N`
Solution: zone 2

Exercise: Band for Cc1cnc(-c2nc(C(C)c3ccc(F)cc3)c(NCCN3CCCC3)nc2C)o1 (centres unmarked) ?
Solution: zone 2

Exercise: Please report the category associated with Cc1nnc([C@@H](C)c2ccc(F)cc2)c(NCCN2CCC2)n1 (single isomer, unassigned) , nothing else.
Solution: zone 1

Exercise: Determine which band this molecule sits in: `Cc1nc(Cc2ccc(F)cc2)c(NCCN2CCC2)nc1C`
Solution: zone 2

Exercise: Bin? Cc1nnc([C@@H](C)c2ccccc2)c(N[C@@H]2CCN(C)C2)n1 (single isomer, unassigned)
Solution: zone 3
